- TESTED_ON: hGLP1R (Homo sapiens)
- Construct: expressed in transfected cells; host or cells: HEK-293 cells carrying a CRE-luciferase reporter gene
- Sequence (P43220 24-463): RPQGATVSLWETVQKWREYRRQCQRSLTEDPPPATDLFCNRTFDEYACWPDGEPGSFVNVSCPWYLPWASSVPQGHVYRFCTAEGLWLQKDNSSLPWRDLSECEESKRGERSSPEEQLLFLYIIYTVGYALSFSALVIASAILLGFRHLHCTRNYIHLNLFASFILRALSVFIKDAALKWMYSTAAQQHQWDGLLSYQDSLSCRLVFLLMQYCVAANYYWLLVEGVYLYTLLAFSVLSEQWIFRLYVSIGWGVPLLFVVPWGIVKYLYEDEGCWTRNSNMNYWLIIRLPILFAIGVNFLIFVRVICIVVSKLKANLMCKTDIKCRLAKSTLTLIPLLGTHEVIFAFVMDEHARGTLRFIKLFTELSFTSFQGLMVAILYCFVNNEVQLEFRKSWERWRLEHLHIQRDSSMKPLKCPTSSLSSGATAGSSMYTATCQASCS
- PROTOCOL: hGLP1R CreLuc reporter gene assay in 0.5% and 100% plasma
- Assay type: cell-based
- ASSAY_SETUP: CreLuc reporter gene assay, 0.5% human plasma; read-out: hGLP1R 0.5% hP
- Description: Example 1: hGLPR/hGIPR/hNPY2R CreLuc Assay in 0.5% and 100% Plasma CHO and HEK-293 recombinant cell lines express a luciferase reporter gene under control of the cAMP responsive element (CRE). […] Following incubation, assay plates are equilibrated to room temperature, followed by addition of 25 μl of Bright-GIo™ Luciferase reagent, incubation at room temperature for 10 minutes and analysis of luminescence (Envision Reader). […]
Starred links: 1 amine or outer side, 2 acyl side, 3 side chain; linkers in the order of their positions; H or OH if unused. Non-standard residues stand in square brackets, D forms with d. Groups on a side chain read outwards from the residue. *: point of attachment. C20 diacid = O=C(O)CCCCCCCCCCCCCCCCCCC(=O)*; C18 diacid = O=C(O)CCCCCCCCCCCCCCCCC(=O)*; γGlu = O=C(O)[C@H](CCC(=O)[*:2])N[*:1]; εLys = N[C@@H](CCCCN[*:1])C(=O)[*:2]; Aib = CC(C)(N)C(=O)O; Ahx = NCCCCCC(=O)O
We begin with a simple list: items and their reported pEC50.
Scale for pEC50: -log10 of concentration given in mol/L; no unit attached.

Consider the following illustrative entries.
• H-Y[Aib]EGTFTSDYSI[Aib]LEKQAQ[Aib]AFVEWLIK([Ahx-γGlu-γGlu-γGlu-γGlu-γGlu-C20 diacid])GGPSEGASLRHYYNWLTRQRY-NH2 [Compound 301] = 9.64
• H-Y[Aib]EGTFTSDYSI[Aib]LEKQAQ[Aib]AFVEWLIK([γGlu-γGlu-γGlu-γGlu-γGlu-γGlu-C20 diacid])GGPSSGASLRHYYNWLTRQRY-NH2 [Compound 235] = 9.92
• H-Y[Aib]EGTFTSDYSI[Aib]LEKQAQ[Aib]EFVQWLIK([γGlu-γGlu-γGlu-γGlu-C18 diacid])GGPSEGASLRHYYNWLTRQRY-NH2 [Compound 202] = 9.68
• H-Y[Aib]EGTFTSDYSI[Aib]LESQAQ[Aib]AFVEWLIK([εLys-γGlu-γGlu-γGlu-γGlu-γGlu-γGlu-C20 diacid])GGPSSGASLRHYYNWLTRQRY-NH2 [Compound 121] = 9.74
• H-Y[Aib]EGTFTSDYSI[Aib]LEKQAQ[Aib]AFVEWLIK([εLys-γGlu-γGlu-γGlu-γGlu-γGlu-γGlu-C20 diacid])GGPSSYVSIRHYYNWLTRQRY-NH2 [Compound 9] = 9.34

Consider the record given below.
pEC50 recorded for this substance, H-Y[Aib]EGTFTSDYSI[Aib]LEKQAQ[Aib]AFVQWLIK([εLys-γGlu-γGlu-γGlu-γGlu-γGlu-C20 diacid])GGPSEYASLRHYYNWLTRQRY-NH2 [Compound 189] , is 9.68
